Target: human CB1 receptors (Homo sapiens)
Construct: (cDNA clone) CNR01L000
Experiment: cAMP assay in HEK-293 cells, hCB1 agonist
Format: cell-based
Details: inhibition of forskolin-stimulated cAMP, HEK-293 cells; read-out: hCB1 EC50 (cAMP ag)
pEC50: −log10 of the molar value.
Reported property: pEC50

1. COc1ccc(C(=O)c2cc3cc(C)n(CCN4CCOCC4)c3s2)c(C)c1 = 6.00 to 7.00
2. COc1ccc(C(=O)c2cc3cc(C)n(CCC(C)(C)O)c3s2)cc1 = 5.00 to 6.00
3. CCc1ccc(C(=O)c2cc3cc(C)n(CCN4CCOCC4)c3s2)cc1 = 5.00 to 6.00
4. COc1ccc(C(=O)c2cc3cc(C)n(CCN4CCCC4)c3s2)c(Cl)c1 = 5.00 to 6.00
5. COc1ccc(C(=O)c2cc3cc(C)n(CCN4CCOCC4)c3s2)c(Cl)n1 = 6.00 to 7.00
6. Cc1cc2cc(C(=O)c3cccc4c3OCC4)sc2n1CCN1CCOCC1 = 6.00 to 7.00
7. Cc1cc2cc(C(=O)c3ccc(Cl)cc3Cl)sc2n1CCN1CCOCC1 = 6.00 to 7.00
8. Cc1cc2cc(Cc3cccc(Cl)c3Cl)sc2n1CCN1CCOCC1 = 5.00 to 6.00
9. Cc1ccccc1C(=O)c1cc2cc(C)n(CCN3CCOCC3)c2s1 = 6.00 to 7.00

====

Target: human CB2 receptors (Homo sapiens, UniProt P34972)
Construct: (cDNA clone) CNR0200000
Assay: cAMP assay in HEK-293 cells, hCB2 agonist
Format: cell-based
Here the recorded EC50 is given for each entry.
Reported property: EC50

1. COc1ccc(C(=O)c2cc3cc(C)n(CCNC4CCOCC4)c3s2)cn1 [Compound 163] = 100 to 1000 nM
2. Cc1cc2cc(C(=O)c3ccc(N(C)C(=O)OC(C)(C)C)cc3)sc2n1CCN1CCOCC1 [Compound 132] = 100 to 1000 nM
3. Cc1cc2cc(C(=O)c3ccc(F)cc3Cl)sc2n1CCN1CCOCC1 [Compound 64] = < 100 nM
4. COc1ccc(C(=O)c2cc3cc(C)n(CCN4CCOC4=O)c3s2)cc1 [Compound 50] = < 100 nM
5. COc1ccc(C(=O)c2cc3cc(C)n(CCN4CCCCC4)c3s2)cn1 [Compound 117] = < 100 nM
6. Cc1cc2cc(C(=O)c3cccc(Cl)c3Cl)sc2[nH]1 [Compound 2] = 1000 to 10000 nM
7. COc1ccc(C(=O)c2cc3cc(C)n(CCN4CCCCC4)c3s2)c(F)c1 [Compound 98] = < 100 nM
8. COc1ccc(C(=O)c2cc3cc(C)n(CCN4CCOCC4)c3s2)cc1Cl [Compound 116] = < 100 nM
9. COc1ccc(C(=O)c2cc3cc(C)n(CC4COCCO4)c3s2)cn1 (stereo not drawn) [Compound 177] = 1000 to 10000 nM

====

Target: human CB2 receptors (Homo sapiens, UniProt P34972)
Construct: (cDNA clone) CNR0200000
Test: cAMP assay in HEK-293 cells, hCB2 agonist
Type: cell-based
Conditions: inhibition of forskolin-stimulated cAMP, HEK-293 cells; read-out: hCB2 EC50 (cAMP ag)
pEC50: −log10 of the molar value.
// reported pEC50 for each item listed
Reported property: pEC50

1) Cc1cc2cc(C(=O)c3ccc(F)cc3F)sc2n1CCN1CCOCC1 [Compound 135] = > 7.00
2) COc1ccc(C(C)(O)c2cc3cc(C)n(CCN4CCOCC4)c3s2)cc1 (stereo not drawn) [Compound 101] = > 7.00
3) COc1ccc(C(=O)c2cc3cc(C)n(CC(=O)O)c3s2)c(F)c1 [Compound 176] = > 7.00
4) COc1ccc(C(c2cc3cc(C)n(CCN4CCOCC4)c3s2)C(F)(F)F)cc1 (stereo not drawn) [Compound 141] = > 7.00
5) CCn1c(C)cc2cc(C(=O)c3cccc(Cl)c3Cl)sc21 [Compound 19] = > 7.00
6) COc1ccc(C(=O)c2cc3cc(C)n(S(=O)(=O)N(C)C)c3s2)cc1 [Compound 51] = > 7.00
7) COc1ccc(C(=O)c2cc3cc(C)n(CCN4CCOCC4)c3s2)cc1F [Compound 128] = 6.00 to 7.00
8) COc1ccc(C(=O)c2cc3cc(C)n(Cc4ccccc4)c3s2)c(Cl)c1 [Compound 114] = 5.00 to 6.00
9) Cc1ccc(C(=O)c2cc3cc(C)n(CCCNS(C)(=O)=O)c3s2)c(F)c1 [Compound 97] = > 7.00

====

# maps each entry to its IC50
Target: recombinant human cannabinoid receptor CB1 (Homo sapiens, UniProt P21554)
Construct: (cDNA clone) CNR01L000
Test: Cannabinoid receptor radioligand binding assay, [3H]-CP 55,940 displacement, hCB1
Reported property: IC50

1) CCS(=O)(=O)n1c(C)cc2cc(C(=O)c3ccc(OC)cc3)sc21 = > 10 µM
2) Cc1cc2cc(C(=O)c3cccc(Cl)c3Cl)sc2n1CCCNS(C)(=O)=O = > 10 µM
3) COc1ccc(C(=O)c2cc3cc(C)n(CCN4CCOCC4)c3s2)c(OC)c1 = 0.1 to 1 µM
4) CCOc1ccc(C(=O)c2cc3cc(C)n(CCN4CCOCC4)c3s2)cc1 = 1 to 10 µM
5) COc1ccc(C(=O)c2cc3cc(C)n(CCN4CCCCC4)c3s2)cc1 = 1 to 10 µM

====

Listing of recorded EC50 by entry.
Target: human CB2 (hCB2) (Homo sapiens)
Construct: (cDNA clone) CNR0200000
Sequence (P34972 whole entry): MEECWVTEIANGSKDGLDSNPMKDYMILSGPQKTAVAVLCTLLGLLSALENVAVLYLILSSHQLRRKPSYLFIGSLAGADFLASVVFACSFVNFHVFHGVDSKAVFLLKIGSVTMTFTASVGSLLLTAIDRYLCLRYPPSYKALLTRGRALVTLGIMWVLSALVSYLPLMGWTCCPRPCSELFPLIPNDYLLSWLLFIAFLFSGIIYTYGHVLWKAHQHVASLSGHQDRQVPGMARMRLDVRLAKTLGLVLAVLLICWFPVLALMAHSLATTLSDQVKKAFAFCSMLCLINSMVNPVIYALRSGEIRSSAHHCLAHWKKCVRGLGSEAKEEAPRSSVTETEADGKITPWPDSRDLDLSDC
Assay: 35S GTPγS binding assay, hCB2 agonist
Type: biochemical
Reported property: EC50

1) COc1ccc(C(=O)c2cc3cc(C)n(CCNC4CCOCC4)c3s2)cn1 = 1000 to 10000 nM
2) COc1ccc(C(=O)c2cc3cc(C)n(CCN4CCCCC4)c3s2)cn1 = < 100 nM
3) Cc1ccc(C(O)c2cc3cc(C)n(CCN4CCOCC4)c3s2)cn1 (centres unmarked) = 100 to 1000 nM
4) COc1ccc(C(=O)c2cc3cc(C)n(CCn4ccnc4)c3s2)cc1 = 100 to 1000 nM
5) COCCN(C)CCn1c(C)cc2cc(C(=O)c3ccc(OC)nc3)sc21 = 1000 to 10000 nM

====

Biological target: recombinant human cannabinoid receptor CB1 (Homo sapiens, UniProt P21554)
Construct: (cDNA clone) CNR01L000
Experiment: Cannabinoid receptor radioligand binding assay, [3H]-CP 55,940 displacement, hCB1
pIC50: −log10 of the molar value.
Reported property: pIC50

1. COc1ccc(C(=O)c2cc3cc(C)n(CCN4CCSCC4)c3s2)cc1 = 5.00 to 6.00
2. COc1ccc(C(=O)c2cc3cc(C)n(CCCN4CCOCC4)c3s2)cc1 = 6.00 to 7.00
3. COc1ccc(C(=O)c2cc3cc(C)n(CCN4CCCCC4)c3s2)c(F)c1 = 5.00 to 6.00
4. COc1ccc(C(=O)c2cc3cc(C)n(CCn4ccnc4)c3s2)cc1 = < 5.00
5. Cc1cc2cc(C(=O)c3ccc(Cl)cc3Cl)sc2n1CCN1CCOCC1 = 6.00 to 7.00
6. COc1ccc(C(=O)c2cc3cc(C)n(CC4CCSCC4)c3s2)cn1 = > 7.00

====

Biological target: human CB1 receptors (Homo sapiens, UniProt P21554)
Construct: (cDNA clone) CNR01L000
Sequence (P21554 whole entry): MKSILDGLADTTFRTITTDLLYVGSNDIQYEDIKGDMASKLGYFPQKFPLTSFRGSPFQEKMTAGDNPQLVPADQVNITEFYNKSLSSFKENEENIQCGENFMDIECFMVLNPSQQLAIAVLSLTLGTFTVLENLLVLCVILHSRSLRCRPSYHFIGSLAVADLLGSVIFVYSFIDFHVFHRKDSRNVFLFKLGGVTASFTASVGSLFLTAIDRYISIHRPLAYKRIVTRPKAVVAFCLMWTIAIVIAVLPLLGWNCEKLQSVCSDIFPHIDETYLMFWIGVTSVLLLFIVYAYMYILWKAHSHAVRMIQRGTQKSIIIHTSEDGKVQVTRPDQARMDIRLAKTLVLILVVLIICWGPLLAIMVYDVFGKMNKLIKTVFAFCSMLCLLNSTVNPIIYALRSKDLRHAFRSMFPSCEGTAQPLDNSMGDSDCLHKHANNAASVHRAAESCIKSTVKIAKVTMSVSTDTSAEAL
Assay: cAMP assay in HEK-293 cells, hCB1 agonist
Assay type: cell-based
Settings: inhibition of forskolin-stimulated cAMP, HEK-293 cells; read-out: hCB1 EC50 (cAMP ag)
Reported property: EC50

1. COc1ccc(C(=O)c2cc3cc(C)n(CCN4CCOCC4)c3s2)c(C(F)(F)F)c1 = 100 to 1000 nM
2. COc1ccc(C(=O)c2cc3cc(C)n(S(=O)(=O)CC4CCOCC4)c3s2)cc1 = < 100 nM
3. COc1ccc(C(=O)c2cc3cc(C)n(CC4CCOCC4)c3s2)c(F)c1 = 1000 to 10000 nM
4. CCOc1ccc(C(=O)c2cc3cc(C)n(CCN4CCOCC4)c3s2)cc1 = 1000 to 10000 nM
5. COc1ccc(C(=O)c2cc3cc(C)n(CCN4CCOCC4)c3s2)c(F)c1 = 1000 to 10000 nM
6. Cc1cc2cc(C(=O)c3cccc(Cl)c3Cl)sc2n1CCC1CCOCC1 = 100 to 1000 nM
7. Cc1cc2cc(C(=O)c3ccccc3OC(F)(F)F)sc2n1CCN1CCOCC1 = 100 to 1000 nM

====

Below is a list of entries, each paired with its recorded IC50 value.
Target: recombinant human cannabinoid receptor CB1 (Homo sapiens, UniProt P21554)
Construct: (cDNA clone) CNR01L000
Test: Cannabinoid receptor radioligand binding assay, [3H]-CP 55,940 displacement, hCB1
Reported property: IC50

1. Cc1ccc(C(=O)c2cc3cc(C)n(CCN4CCOCC4)c3s2)cc1 [Compound 124] = 1000 to 10000 nM
2. Cc1cc2cc(C(=O)c3cccc(Cl)c3Cl)sc2n1S(=O)(=O)N1CCOCC1 [Compound 45] = < 100 nM
3. COc1ccc(C(=O)c2cc3cc(C)n(CC4CCOCC4)c3s2)cn1 [Compound 144] = 1000 to 10000 nM
4. CCOc1ccc(C(=O)c2cc3cc(C)n(CCN4CCOCC4)c3s2)cn1 [Compound 150] = > 10000 nM
5. COc1ccc(C(=O)c2cc3cc(C)n(S(=O)(=O)N(C)C)c3s2)cc1 [Compound 51] = 1000 to 10000 nM
6. COc1ccc(C(=O)c2cc3cc(C)n(S(=O)(=O)N(C)C)c3s2)cn1 [Compound 113] = 1000 to 10000 nM
7. Cc1cc2cc(C(=O)c3ccc(Cl)cc3)sc2n1CCN1CCOCC1 [Compound 6] = 1000 to 10000 nM
8. CNc1ccc(C(=O)c2cc3cc(C)n(CCN4CCOCC4)c3s2)cc1 [Compound 134] = 1000 to 10000 nM
9. Cc1cc2cc(C(=O)c3ccccc3Cl)sc2n1CCN1CCOCC1 [Compound 5] = 100 to 1000 nM
10. COc1ccc(C(=O)c2cc3cc(C)n(CCC4CCOCC4)c3s2)cc1 [Compound 82] = 100 to 1000 nM

Ref: patent US20130029970A1
